Kindly supply the reported IC50 values for the records listed here.
Test system: metabolism of retinoic acid in human breast cancer cells
EXPERIMENT_NOTES: Inhibition of retinoic acid (RA) metabolism (Example C.1)
Format: cell-based
CONDITION_SUMMARY: MCF-7 human breast cancer cells, 3H-RA as substrate; concentration needed to reduce the amount of metabolites to 50% of the control
Answers are plain numbers, in nM.

Dear colleague, could you please provide IC50 for the molecules listed below?
1. CC(C)C(=O)Nc1ccc(C(C(C)C)n2ccnc2)cc1 (racemic) [Compound 209]
2. CCC(CC)C(c1ccc(NC(=O)Nc2cc(F)ccc2F)cc1)n1ccnc1 (racemic) [Compound 710]
3. C/C(C(=O)Nc1ccc(C(C(C)C)n2ccnc2)cc1)=C(/c1ccccc1)c1ccco1 (racemic) [Compound 207]
4. CC(=Cc1cccc(C(F)(F)F)c1)C(=O)Nc1ccc(C(C(C)C)n2ccnc2)cc1 (racemic) [Compound 578]
5. COc1ccc(CC(=O)Nc2ccc(C(C(C)N3CCN(C)CC3)n3ccnc3)cc2)cc1OC.O (single isomer, unassigned) [Compound 412]
6. CC(C)C(c1ccc(NC(=O)Nc2cccc(C(F)(F)F)c2)cc1)n1ccnc1 (racemic) [Compound 730]

Result block:
1: 8.27; 2: 0.188; 3: 25.4; 4: 7.67; 5: 3.99; 6: 15.9

Dear colleague, could you please provide IC50 for the molecules listed below?
1. CCC(CC)C(c1ccc(NC(=O)Cc2ccc(OC)cc2)cc1)n1ccnc1 (racemic) [Compound 105]
2. C/C(=C\c1ccc(F)cc1)C(=O)Nc1ccc(C(C(C)C)n2ccnc2)cc1 (racemic) [Compound 583]
3. O=C(Nc1ccc(C(c2cccc(C(F)(F)F)c2)n2ccnc2)cc1)Nc1cc(F)ccc1F (racemic) [Compound 709]
4. CC(C)C(c1ccc(NC(=O)Nc2ccccc2F)cc1)n1ccnc1 (racemic) [Compound 726]
5. CCC(CC)C(c1ccc(NC(=O)Cc2cccc(OC)c2)cc1)n1ccnc1 (racemic) [Compound 90]
6. CCC(C(c1ccc(NC(=O)Cc2ccc(OC)c(OC)c2)cc1)n1ccnc1)N(C)C (single isomer, unassigned) [Compound 388]
7. CC(=Cc1ccccc1)C(=O)Nc1ccc(C(C(C)C)n2cnnc2)cc1 (stereo not shown) [Compound 749]
8. CC(C(=O)Nc1ccc(C(C(C)C)n2ccnc2)cc1)c1ccccc1 (stereo not shown) [Compound 657]

Result block:
[0.0516, 2.78, 2.4, 3.71, 2.36, 0.829, 126, 5.36]

Query block: Provide IC50, recorded with metabolism of retinoic acid in human breast cancer cells, of CCCOc1ccc(CC(=O)Nc2ccc(C(C(CC)CC)n3ccnc3)cc2)cc1 (racemic) [Compound 93]
Result block: 1.59
